- Assay notes: Cmax in Long Evans rat brain at 30 mg/kg, po
- Type: ADME, organism-based
- Set-up: dose 30 mg/kg, route oral
Value type: Cmax (ng/mL)
Give the value in ng/mL but do not write ng/mL after it.

In: Need Cmax of Fc1ccc(-c2c3cccc(C(F)(F)F)c3nn2Cc2ccc(F)cc2Cl)cc1 [LXR-623] , thanks.
Out: 3530

* * *

- Assayed system: Oxysterols receptor LXR-beta (Homo sapiens, UniProt P55055)
- Sequence (P55055 whole entry): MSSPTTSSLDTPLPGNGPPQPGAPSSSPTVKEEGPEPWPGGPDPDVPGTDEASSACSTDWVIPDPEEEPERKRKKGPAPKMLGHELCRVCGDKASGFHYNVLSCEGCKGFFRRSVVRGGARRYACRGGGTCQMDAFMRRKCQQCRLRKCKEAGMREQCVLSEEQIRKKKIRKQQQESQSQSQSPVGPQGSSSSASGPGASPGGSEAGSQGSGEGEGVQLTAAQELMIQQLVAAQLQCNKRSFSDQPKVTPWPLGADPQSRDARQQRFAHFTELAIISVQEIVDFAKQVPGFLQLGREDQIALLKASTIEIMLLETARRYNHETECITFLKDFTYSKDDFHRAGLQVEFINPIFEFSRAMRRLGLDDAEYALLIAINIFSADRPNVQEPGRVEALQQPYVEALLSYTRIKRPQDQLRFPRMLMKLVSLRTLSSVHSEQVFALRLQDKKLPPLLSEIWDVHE
- Assay notes: Displacement of [3H]TO901317 from human recombinant LXRbeta expressed in Escherichia coli by flashplate method
Mark 1 for IC50 under 1000 nM, 0 if at or over.

In: Strictly below 1000 nM in IC50? CS(=O)(=O)c1cccc(Oc2cccc(-c3c(C#N)cnc4c(C(F)(F)F)cccc34)c2)c1
Out: 1

In: Input CCOC(=O)c1cnc2c(C(F)(F)F)cccc2c1-c1cccc(Oc2cccc(S(C)(=O)=O)c2)c1 ; condition: IC50 strictly below 1000 nM. Does it hold?
Out: 1

In: Say whether its IC50 is strictly beneath 1000 nM. Entry: CS(=O)(=O)c1cccc(Oc2cccc(-c3c(-n4cnnn4)cnc4c(C(F)(F)F)cccc34)c2)c1
Out: 0

In: Take the compound CS(=O)(=O)c1cccc(Oc2cccc(-c3c(C(N)=O)cnc4ccccc34)c2)c1 and say whether its IC50 is less than 1000 nM.
Out: 0

In: Consider CCS(=O)(=O)c1cccc(Oc2cccc(-c3c(C(N)=O)cnc4c(C(F)(F)F)cccc34)c2)c1 . Does its IC50 lie strictly below 1000 nM?
Out: 1

In: Does CS(=O)(=O)c1cc(F)cc(Oc2cccc(-c3c(C(N)=O)cnc4c(C(F)(F)F)cccc34)c2)c1 have IC50 strictly under 1000 nM?
Out: 1

In: Decide: IC50 of CS(=O)(=O)c1cccc(Oc2cccc(-c3c(C(=O)O)cnc4c(C(F)(F)F)cccc34)c2)c1 strictly below 1000 nM?
Out: 0

In: Quick check: IC50 of CS(=O)(=O)c1cccc(Oc2cccc(-c3c(C(=N)N)cnc4c(C(F)(F)F)cccc34)c2)c1 under 1000 nM?
Out: 0

In: I wonder whether CNC(=O)c1cnc2c(C(F)(F)F)cccc2c1-c1cccc(Oc2cccc(S(C)(=O)=O)c2)c1 has IC50 below 1000 nM. Can you tell?
Out: 1

In: I'd appreciate it if you could check whether CS(=O)(=O)c1cccc(Oc2cccc(-c3c(C(N)=O)cnc4c(Cl)cccc34)c2)c1 has IC50 smaller than 1000 nM.
Out: 1

* * *

- Assayed system: Oxysterols receptor LXR-beta (Homo sapiens, UniProt P55055)
- Assay notes: Displacement of [3H]TO901317 from human recombinant LXRbeta expressed in Escherichia coli by flashplate method
Value type: IC50 (nM)
Respond numerically; units are nM and should not be typed.

In: Given CS(=O)(=O)c1cccc(Oc2cccc(-c3c(CN)cnc4c(C(F)(F)F)cccc34)c2)c1 , state its recorded IC50.
Out: 77

In: Please report the recorded IC50 for Cc1cccc2c(-c3cccc(Oc4cccc(S(C)(=O)=O)c4)c3)c(C(N)=O)cnc12 .
Out: 28

In: I would be grateful if you could share the reported IC50 for CS(=O)(=O)c1cc(Cl)cc(Oc2cccc(-c3c(C(N)=O)cnc4c(C(F)(F)F)cccc34)c2)c1 .
Out: 62

In: // lookup IC50 for CC(C)S(=O)(=O)c1cccc(Oc2cccc(-c3c(C(N)=O)cnc4c(C(F)(F)F)cccc34)c2)c1
Out: 5

In: Return reported IC50; argument: CCCS(=O)(=O)c1cccc(Oc2cccc(-c3c(C(N)=O)cnc4c(C(F)(F)F)cccc34)c2)c1
Out: 57

In: # query: IC50 of entry CCNC(=O)c1cnc2c(C(F)(F)F)cccc2c1-c1cccc(Oc2cccc(S(C)(=O)=O)c2)c1
Out: 730

In: # lookup: IC50 of CS(=O)(=O)c1cccc(Oc2cccc(-c3c(C(N)=O)cnc4c(C(F)(F)F)cccc34)c2)c1
Out: 18

In: So what does the record say about IC50 for CS(=O)(=O)c1cccc(Oc2cccc(-c3c(C(N)=O)cnc4c(F)cccc34)c2)c1 ?
Out: 590

* * *

- Assayed system: Oxysterols receptor LXR-alpha (Homo sapiens, UniProt Q13133)
- Sequence (Q13133 whole entry): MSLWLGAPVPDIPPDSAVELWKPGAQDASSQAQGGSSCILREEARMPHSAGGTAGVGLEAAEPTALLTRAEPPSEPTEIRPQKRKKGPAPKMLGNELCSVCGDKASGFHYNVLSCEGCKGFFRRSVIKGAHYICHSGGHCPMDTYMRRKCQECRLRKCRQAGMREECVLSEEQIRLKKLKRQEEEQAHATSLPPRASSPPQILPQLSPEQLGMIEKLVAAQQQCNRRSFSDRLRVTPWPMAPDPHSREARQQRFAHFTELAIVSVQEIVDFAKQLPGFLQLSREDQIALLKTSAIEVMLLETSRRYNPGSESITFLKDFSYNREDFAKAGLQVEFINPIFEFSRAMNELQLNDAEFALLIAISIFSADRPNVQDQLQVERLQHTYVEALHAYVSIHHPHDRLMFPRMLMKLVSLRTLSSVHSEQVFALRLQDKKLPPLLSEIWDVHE
- Assay notes: Displacement of [3H]TO901317 from human recombinant LXRalpha expressed in Escherichia coli by flashplate method
Value type: IC50 (µM)
Just the number in µM, nothing appended.

In: Entry CS(=O)(=O)c1cccc(Oc2cccc(-c3c(C(N)=O)cnc4c(C(F)(F)F)cccc34)c2)c1 has what IC50?
Out: 0.6

In: Entry CS(=O)(=O)c1cccc(Oc2cccc(-c3c(C(=N)N)cnc4c(C(F)(F)F)cccc34)c2)c1 has what IC50?
Out: 29.8

In: Item under review: CS(=O)(=O)c1cc(Cl)cc(Oc2cccc(-c3c(C(N)=O)cnc4c(C(F)(F)F)cccc34)c2)c1 . Reported IC50?
Out: 1.77

In: Fill in the blank: the reported IC50 of CS(=O)(=O)c1cccc(Oc2cccc(-c3c(CN)cnc4c(C(F)(F)F)cccc34)c2)c1 is ____.
Out: 0.445

In: Which value of IC50 has been reported for CS(=O)(=O)c1cccc(Oc2cccc(-c3c(-n4cnnn4)cnc4c(C(F)(F)F)cccc34)c2)c1 in the records?
Out: 26.6

In: Dear colleague, I am looking for the recorded IC50 of the following molecule: CS(=O)(=O)c1cccc(Oc2cccc(-c3c(C(N)=O)cnc4c(Cl)cccc34)c2)c1
Out: 0.543

In: Item CC(C)S(=O)(=O)c1cccc(Oc2cccc(-c3c(C(N)=O)cnc4c(C(F)(F)F)cccc34)c2)c1 has what recorded IC50?
Out: 0.286

In: I would be grateful if you could share the reported IC50 for CCCS(=O)(=O)c1cccc(Oc2cccc(-c3c(C(N)=O)cnc4c(C(F)(F)F)cccc34)c2)c1 .
Out: 1.36

In: Any idea what its IC50 is? The molecule is CCNC(=O)c1cnc2c(C(F)(F)F)cccc2c1-c1cccc(Oc2cccc(S(C)(=O)=O)c2)c1
Out: 6.86

In: For the molecule shown here, CCS(=O)(=O)c1cccc(Oc2cccc(-c3c(C(N)=O)cnc4c(C(F)(F)F)cccc34)c2)c1 , give the reported IC50.
Out: 0.453

In: What measured IC50 goes with CS(=O)(=O)c1cccc(Oc2cccc(-c3c(C#N)cnc4c(C(F)(F)F)cccc34)c2)c1 ?
Out: 0.0134

In: Suppose we examine the molecule Cc1cccc2c(-c3cccc(Oc4cccc(S(C)(=O)=O)c4)c3)c(C(N)=O)cnc12 ; what IC50 value has been reported?
Out: 0.756

In: Quick one: IC50 for CS(=O)(=O)c1cc(F)cc(Oc2cccc(-c3c(C(N)=O)cnc4c(C(F)(F)F)cccc34)c2)c1 ?
Out: 0.552

In: Item CCOC(=O)c1cnc2c(C(F)(F)F)cccc2c1-c1cccc(Oc2cccc(S(C)(=O)=O)c2)c1 has what recorded IC50?
Out: 0.0066

In: Report IC50 for CS(=O)(=O)c1cccc(Oc2cccc(-c3c(C(=O)O)cnc4c(C(F)(F)F)cccc34)c2)c1 please.
Out: 6.35

In: Requested read-out: IC50. Entry: CS(=O)(=O)c1cccc(Oc2cccc(-c3c(C(N)=O)cnc4c(F)cccc34)c2)c1
Out: 12.7

* * *

- Assay notes: Cmax in Long Evans rat brain at 10 mg/kg, po
- Format: ADME, organism-based
- Set-up: dose 10 mg/kg, route oral
Value type: Cmax (ng/mL)
Enter your answer as a number in ng/mL; do not include the unit.

In: Any idea what its Cmax is? The molecule is CS(=O)(=O)c1cccc(Oc2cccc(-c3c(C(N)=O)cnc4c(Cl)cccc34)c2)c1
Out: 107

* * *

- Assay notes: Cmax in Long Evans rat plasma at 30 mg/kg, po
- Type: ADME, organism-based
- Design: dose 30 mg/kg, route oral
Value type: Cmax
Write the numeric value and follow it with the unit.

In: Suppose we examine the compound Fc1ccc(-c2c3cccc(C(F)(F)F)c3nn2Cc2ccc(F)cc2Cl)cc1 [LXR-623] ; what Cmax value has been reported?
Out: 2.85 µg/mL

* * *

- Assay notes: Ratio of AUC (0 to infinity) in brain to AUC (0 to infinity) in plasma in Long Evans rat at 30 mg/kg, po
- Format: ADME, organism-based
- Set-up: dose 30 mg/kg, route oral
- Stated conditions: brain and plasma
Value type: Kp
Please reply with the number alone, leaving off any unit.

In: Entry Fc1ccc(-c2c3cccc(C(F)(F)F)c3nn2Cc2ccc(F)cc2Cl)cc1 [LXR-623] : reported Kp = ?
Out: 1.2

Reference source: ChEMBL document CHEMBL1153188
